READOUT_LABEL: melting point

Examples from the recorded data:
{"columns": ["CHEMICAL_STRUCTURE", "READOUT_LABEL", "RECORDED_RESULT"],
 "data": [
  ["O=C(N[C@H](Cc1c[nH]c2ccccc12)C(=O)Nc1ccc(F)cc1)Oc1ccccc1", "melting point", "185 to 189 °C"],
  ["C#CCNC(=O)[C@@H](Cc1c[nH]c2ccccc12)NC(=O)Oc1ccccc1", "melting point", "173 to 177 °C"]
]}

// switching to the query compound
Given the entry O=C(N[C@H](Cc1c[nH]c2ccccc12)C(=O)Nc1ccc2c(c1)OCO2)Oc1ccccc1 , report its measured melting point. 186 to 188 °C

###

Molecular target: falcipain-2 (FP-2) (Plasmodium falciparum, UniProt Q8I6U4)
Construct: made in house
Sequence (Q8I6U4 244-484): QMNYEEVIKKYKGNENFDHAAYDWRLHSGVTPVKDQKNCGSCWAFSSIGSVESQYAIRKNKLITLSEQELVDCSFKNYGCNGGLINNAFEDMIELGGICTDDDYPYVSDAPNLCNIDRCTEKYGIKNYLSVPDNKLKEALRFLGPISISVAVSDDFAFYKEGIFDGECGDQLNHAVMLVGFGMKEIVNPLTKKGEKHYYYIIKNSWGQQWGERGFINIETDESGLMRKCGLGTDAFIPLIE
Assay: Enzyme inhibition assay, recombinant FP-2, substrate Z-Leu-Arg-AMC, fluorescence
Format: biochemical
Conditions: pH 5.5, read-out: Inhibition rate at 10 μM (%), 10 μM compound; FP-2 30 nM, pH 5.5, 30 min preincubation
Respond with T for inhibition at 10 µM values of 10% and above, F for values below.

Sample answers from the record:
{"columns": ["CHEMICAL_STRUCTURE", "LABEL"],
 "data": [
  ["O=C(N[C@H](Cc1c[nH]c2ccccc12)C(=O)Nc1ccc(F)cc1)Oc1ccccc1", "F"],
  ["COC(=O)c1ccc(CNC(=O)[C@@H](Cc2c[nH]c3ccccc23)NC(=O)Oc2ccccc2)cc1", "T"],
  ["C#CCNC(=O)[C@@H](Cc1c[nH]c2ccccc12)NC(=O)Oc1ccccc1", "F"],
  ["O=C(N[C@H](Cc1c[nH]c2ccccc12)C(=O)Nc1ccccc1)Oc1ccccc1", "T"]
]}

API: above_or_equal(metric=inhibition at 10 µM, cutoff=10%) for item O=C(N[C@H](Cc1c[nH]c2ccccc12)C(=O)NCc1ccccc1)Oc1ccccc1 T

Hi team, for CCOc1ccc(NC(=O)[C@@H](Cc2c[nH]c3ccccc23)NC(=O)Oc2ccccc2)cc1 , is the recorded inhibition at 10 µM at or above 10%? T

Is inhibition at 10 µM at least 10%? Consider O=C(N[C@@H](Cc1c[nH]c2ccccc12)C(=O)NCc1ccccc1)Oc1ccccc1 T

Could you tell me if the measured inhibition at 10 µM of O=C(N[C@H](Cc1c[nH]c2ccccc12)C(=O)Nc1ccc2c(c1)OCO2)Oc1ccccc1 reaches 10% or more? F

Tell me whether inhibition at 10 µM is at least 10% here: O=C(N[C@H](Cc1c[nH]c2ccccc12)C(=O)NCc1cccs1)Oc1ccccc1 F

###

biological target: falcipain-2 (FP-2) (Plasmodium falciparum, UniProt Q8I6U4)
READOUT_LABEL: Kd

I'd like to know its Kd. The compound in question is O=C(N[C@H](Cc1c[nH]c2ccccc12)C(=O)NCc1ccccc1)Oc1ccccc1 [Compound 1] 5.88 µM

###

target: falcipain-2 (FP-2) (Plasmodium falciparum, UniProt Q8I6U4); construct: made in house; experiment: Enzyme inhibition assay, recombinant FP-2, substrate Z-Leu-Arg-AMC, fluorescence; assay type: biochemical; conditions: recombinant FP-2 30 nM, Z-Leu-Arg-AMC 25 μM, pH 5.5; read-out: IC50
READOUT_LABEL: pIC50
# log scale: pIC50 equals minus log10 of the concentration in mol/L

// lookup pIC50 | system=falcipain-2 (FP-2) (Plasmodium falciparum, UniProt Q8I6U4) | key= O=C(Cc1ccccc1)N[C@H](Cc1c[nH]c2ccccc12)C(=O)NCc1ccccc1 [Compound 2b] 4.40

###

biological target: falcipain-2 (FP-2) (Plasmodium falciparum, UniProt Q8I6U4); construct: made in house; experiment: Enzyme inhibition assay, recombinant FP-2, substrate Z-Leu-Arg-AMC, fluorescence; format: biochemical
Each entry below carries its reported pIC50.
For clarity, pIC50 is expressed as the negative log10 of concentration in mol/L.

// known answers, use as guide
{"columns": ["CHEMICAL_STRUCTURE", "STUDY_TARGET", "pIC50"],
 "data": [
  ["O=C(N[C@H](Cc1c[nH]c2ccccc12)C(=O)NCc1ccccc1)Oc1ccccc1", "falcipain-2 (FP-2) (Plasmodium falciparum, UniProt Q8I6U4)", 4.53],
  ["O=C(N[C@H](Cc1c[nH]c2ccccc12)C(=O)NCc1ccc([N+](=O)[O-])cc1)Oc1ccccc1", "falcipain-2 (FP-2) (Plasmodium falciparum, UniProt Q8I6U4)", 5.00]
]}

Turning now to a further record.
Look at this compound and give its reported pIC50. COC(=O)c1ccc(CNC(=O)[C@@H](Cc2c[nH]c3ccccc23)NC(=O)Oc2ccccc2)cc1 4.88

###

READOUT_LABEL: melting point

Look over these answered cases.
{"columns": ["COMPOUND", "melting point"],
 "data": [
  ["O=C(N[C@H](Cc1c[nH]c2ccccc12)C(=O)Nc1ccccc1)Oc1ccccc1 [Compound 2d]", "195 to 197 °C"],
  ["O=C(N[C@H](Cc1c[nH]c2ccccc12)C(=O)NCc1cccs1)Oc1ccccc1 [Compound 2i]", "184 to 186 °C"],
  ["O=C(NCc1ccccc1)[C@@H](Cc1c[nH]c2ccccc12)NCc1ccccc1 [Compound 2c]", "38 to 40 °C"]
]}

Next item in the queue.
Request the reported melting point associated with CCOc1ccc(NC(=O)[C@@H](Cc2c[nH]c3ccccc23)NC(=O)Oc2ccccc2)cc1 [Compound 2f] 180 to 184 °C
